# System: HuO-3N1 (Osteosarcoma);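 note: after 72 h of two-drug dosing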
# Assay protocol: Bliss excess, mean over the matrix (fraction); higher = more synergy
molecules and their reported Bliss excess

Below, each entry is followed by its recorded Bliss excess result.
Molecule	Tested target	Bliss excess
Cc1c2c(nn1C)CSCc1cc(n(C)n1)CSc1cc(c3ccccc3c1)OCCCc1c(C(=O)O)n(C)c3c-2c(Cl)ccc13 [AZD5991] + CCN(CCO)CCCOc1ccc2c(Nc3cc(CC(=O)Nc4cccc(F)c4)[nH]n3)ncnc2c1 [AZD2811] (first compound max 1 µM, 7x7, partner max 1 µM)	HuO-3N1 (Osteosarcoma)	0.0023
CC(=O)c1c(C)c2cnc(Nc3ccc(N4CCNCC4)cn3)nc2n(C2CCCC2)c1=O [Palbociclib] + CN(CC[C@H](CSC1=CC=CC=C1)NC2=C(C=C(C=C2)S(=O)(=O)NC(=O)C3=CC=C(C=C3)N4CCC(CC4)[C@H](C5=CC=CC=C5C6=CC=C(C=C6)Cl)O)S(=O)(=O)C(F)(F)F)CCO [AZD4320] (first compound max 10 µM, 7x7, partner max 1 µM)	HuO-3N1 (Osteosarcoma)	-0.0289
Cc1c2c(nn1C)CSCc1cc(n(C)n1)CSc1cc(c3ccccc3c1)OCCCc1c(C(=O)O)n(C)c3c-2c(Cl)ccc13 [AZD5991] + C[C@@H]1COCCN1C2=NC(=NC(=C2)C3(CC3)[S@](=N)(=O)C)C4=C5C=CNC5=NC=C4 [AZD6738] (first compound max 1 µM, 7x7, partner max 10 µM)	HuO-3N1 (Osteosarcoma)	0.0446

Give Bliss excess for the following molecule: CC1(C)CCC(CN2CCN(c3ccc(C(=O)NS(=O)(=O)c4ccc(NCC5CCOCC5)c([N+](=O)[O-])c4)c(Oc4cnc5[nH]ccc5c4)c3)CC2)=C(c2ccc(Cl)cc2)C1 [Venetoclax] + Cn1cnc2c(F)c(Nc3ccc(Br)cc3Cl)c(C(=O)NOCCO)cc21 [Selumetinib] (first compound max 1 µM, 7x7, partner max 3 µM) -0.011

Consider the molecule C[C@@H]1COCCN1c1cc(C2([S@](C)(=N)=O)CC2)nc(-c2ccnc3[nH]ccc23)n1 [AZD6738] + O=C(c1cc(Cc2n[nH]c(=O)c3ccccc23)ccc1F)N1CCN(C(=O)C2CC2)CC1 [Olaparib] (first compound max 10 µM, 7x7, partner max 10 µM) . State its measured Bliss excess. -0.0071

Provide only the value of recorded Bliss excess for C=CCn1c(=O)c2cnc(Nc3ccc(N4CCN(C)CC4)cc3)nc2n1-c1cccc(C(C)(C)O)n1 [AZD1775] + C[C@@H]1COCCN1C2=NC(=NC(=C2)C3(CC3)[S@](=N)(=O)C)C4=C5C=CNC5=NC=C4 [AZD6738] (first compound max 1 µM, partner max 10 µM) 0.0162

Complete the entry with Bliss excess for C[C@@H](c1ccc2nccn2c1)n1nnc2ncc(-c3cnn(C)c3)nc21 [Savolitinib] + CN(CC[C@H](CSC1=CC=CC=C1)NC2=C(C=C(C=C2)S(=O)(=O)NC(=O)C3=CC=C(C=C3)N4CCC(CC4)[C@H](C5=CC=CC=C5C6=CC=C(C=C6)Cl)O)S(=O)(=O)C(F)(F)F)CCO [AZD4320] (first compound max 1 µM, 7x7, partner max 1 µM) -0.0513

Query Bliss excess for CN(CCO)CC[C@H](CSc1ccccc1)Nc1ccc(S(=O)(=O)NC(=O)c2ccc(N3CCC([C@@H](O)c4ccccc4-c4ccc(Cl)cc4)CC3)cc2)cc1S(=O)(=O)C(F)(F)F [AZD4320] + CN(C)CCCOc1ccc(-c2ccc3ncc4c(c3c2)n(C2CCOCC2)c(=O)n4C)cn1 [AZD0156] (first compound max 1 µM, 7x7, partner max 1 µM) -0.0021

Could you please provide reported Bliss excess for Cc1cc2ncnn2cc1Nc1ncc2c(n1)n(C1CCOCC1)c(=O)n2C [AZD7648] + C=CCn1c(=O)c2cnc(Nc3ccc(N4CCN(C)CC4)cc3)nc2n1-c1cccc(C(C)(C)O)n1 [AZD1775] (first compound max 10 µM, partner max 1 µM) ? Thanks! -0.0205

Specify reported Bliss excess for the molecule shown: C[C@@H](c1ccc2nccn2c1)n1nnc2ncc(-c3cnn(C)c3)nc21 [Savolitinib] + CC1(C)CCC(CN2CCN(c3ccc(C(=O)NS(=O)(=O)c4ccc(NCC5CCOCC5)c([N+](=O)[O-])c4)c(Oc4cnc5[nH]ccc5c4)c3)CC2)=C(c2ccc(Cl)cc2)C1 [Venetoclax] (first compound max 1 µM, 7x7, partner max 1 µM) -0.0708
